Some compounds, each annotated with its measured pIC50.
# experimentalTarget: F1F0-ATPase (Bos taurus)
pIC50: −log10 of the molar value.

Recall the reported pIC50 of Cc1cc(C(=O)/N=C(/NCC(C)C)Nc2cc(-c3ccc(F)cc3)n[nH]2)c(C)o1 when tested on F1F0-ATPase (Bos taurus).
> 5.30

Recall the reported pIC50 of Cn1cc(C(=O)/N=C(/Nc2cc(F)cc(Cl)c2)Nc2cc(-c3cc(O)ccc3F)n[nH]2)c(C(F)(F)F)n1 when tested on F1F0-ATPase (Bos taurus).
4.80 to 5.30

Recall the reported pIC50 of Cc1oncc1C(=O)/N=C(/NCc1ccc(F)cc1Cl)Nc1cc(-c2ccc(Cl)cc2)n[nH]1 when tested on F1F0-ATPase (Bos taurus).
4.80 to 5.30

Recall the reported pIC50 of Cc1cc(C(=O)/N=C(\Nc2cc(-c3cc(F)cc(F)c3)[nH]n2)NC(C)C)c(C(F)(F)F)o1 when tested on F1F0-ATPase (Bos taurus).
> 5.30

Recall the reported pIC50 of COc1ccc(F)c(-c2cc(N/C(=N\C(=O)c3cn(C)nc3C(F)(F)F)NC(C)(C)C)n[nH]2)c1 when tested on F1F0-ATPase (Bos taurus).
4.80 to 5.30

Recall the reported pIC50 of Cn1cc(C(=O)/N=C(/Nc2ccc(F)c(F)c2)Nc2cc(-c3ccc(O)c(F)c3)n[nH]2)c(C(F)(F)F)n1 when tested on F1F0-ATPase (Bos taurus).
> 5.30

Recall the reported pIC50 of CC(C)CN/C(=N/C(=O)c1cn(C)nc1C(F)(F)F)Nc1n[nH]c2cc(F)ccc12 when tested on F1F0-ATPase (Bos taurus).
< 4.80
